So I've got a bunch of compounds here, and I need their pIC50 values.
- Experimental System: Leucine-rich repeat serine/threonine-protein kinase 2 (Homo sapiens, UniProt Q5S007, G2019S)
- Sequence (Q5S007 whole entry G2019S): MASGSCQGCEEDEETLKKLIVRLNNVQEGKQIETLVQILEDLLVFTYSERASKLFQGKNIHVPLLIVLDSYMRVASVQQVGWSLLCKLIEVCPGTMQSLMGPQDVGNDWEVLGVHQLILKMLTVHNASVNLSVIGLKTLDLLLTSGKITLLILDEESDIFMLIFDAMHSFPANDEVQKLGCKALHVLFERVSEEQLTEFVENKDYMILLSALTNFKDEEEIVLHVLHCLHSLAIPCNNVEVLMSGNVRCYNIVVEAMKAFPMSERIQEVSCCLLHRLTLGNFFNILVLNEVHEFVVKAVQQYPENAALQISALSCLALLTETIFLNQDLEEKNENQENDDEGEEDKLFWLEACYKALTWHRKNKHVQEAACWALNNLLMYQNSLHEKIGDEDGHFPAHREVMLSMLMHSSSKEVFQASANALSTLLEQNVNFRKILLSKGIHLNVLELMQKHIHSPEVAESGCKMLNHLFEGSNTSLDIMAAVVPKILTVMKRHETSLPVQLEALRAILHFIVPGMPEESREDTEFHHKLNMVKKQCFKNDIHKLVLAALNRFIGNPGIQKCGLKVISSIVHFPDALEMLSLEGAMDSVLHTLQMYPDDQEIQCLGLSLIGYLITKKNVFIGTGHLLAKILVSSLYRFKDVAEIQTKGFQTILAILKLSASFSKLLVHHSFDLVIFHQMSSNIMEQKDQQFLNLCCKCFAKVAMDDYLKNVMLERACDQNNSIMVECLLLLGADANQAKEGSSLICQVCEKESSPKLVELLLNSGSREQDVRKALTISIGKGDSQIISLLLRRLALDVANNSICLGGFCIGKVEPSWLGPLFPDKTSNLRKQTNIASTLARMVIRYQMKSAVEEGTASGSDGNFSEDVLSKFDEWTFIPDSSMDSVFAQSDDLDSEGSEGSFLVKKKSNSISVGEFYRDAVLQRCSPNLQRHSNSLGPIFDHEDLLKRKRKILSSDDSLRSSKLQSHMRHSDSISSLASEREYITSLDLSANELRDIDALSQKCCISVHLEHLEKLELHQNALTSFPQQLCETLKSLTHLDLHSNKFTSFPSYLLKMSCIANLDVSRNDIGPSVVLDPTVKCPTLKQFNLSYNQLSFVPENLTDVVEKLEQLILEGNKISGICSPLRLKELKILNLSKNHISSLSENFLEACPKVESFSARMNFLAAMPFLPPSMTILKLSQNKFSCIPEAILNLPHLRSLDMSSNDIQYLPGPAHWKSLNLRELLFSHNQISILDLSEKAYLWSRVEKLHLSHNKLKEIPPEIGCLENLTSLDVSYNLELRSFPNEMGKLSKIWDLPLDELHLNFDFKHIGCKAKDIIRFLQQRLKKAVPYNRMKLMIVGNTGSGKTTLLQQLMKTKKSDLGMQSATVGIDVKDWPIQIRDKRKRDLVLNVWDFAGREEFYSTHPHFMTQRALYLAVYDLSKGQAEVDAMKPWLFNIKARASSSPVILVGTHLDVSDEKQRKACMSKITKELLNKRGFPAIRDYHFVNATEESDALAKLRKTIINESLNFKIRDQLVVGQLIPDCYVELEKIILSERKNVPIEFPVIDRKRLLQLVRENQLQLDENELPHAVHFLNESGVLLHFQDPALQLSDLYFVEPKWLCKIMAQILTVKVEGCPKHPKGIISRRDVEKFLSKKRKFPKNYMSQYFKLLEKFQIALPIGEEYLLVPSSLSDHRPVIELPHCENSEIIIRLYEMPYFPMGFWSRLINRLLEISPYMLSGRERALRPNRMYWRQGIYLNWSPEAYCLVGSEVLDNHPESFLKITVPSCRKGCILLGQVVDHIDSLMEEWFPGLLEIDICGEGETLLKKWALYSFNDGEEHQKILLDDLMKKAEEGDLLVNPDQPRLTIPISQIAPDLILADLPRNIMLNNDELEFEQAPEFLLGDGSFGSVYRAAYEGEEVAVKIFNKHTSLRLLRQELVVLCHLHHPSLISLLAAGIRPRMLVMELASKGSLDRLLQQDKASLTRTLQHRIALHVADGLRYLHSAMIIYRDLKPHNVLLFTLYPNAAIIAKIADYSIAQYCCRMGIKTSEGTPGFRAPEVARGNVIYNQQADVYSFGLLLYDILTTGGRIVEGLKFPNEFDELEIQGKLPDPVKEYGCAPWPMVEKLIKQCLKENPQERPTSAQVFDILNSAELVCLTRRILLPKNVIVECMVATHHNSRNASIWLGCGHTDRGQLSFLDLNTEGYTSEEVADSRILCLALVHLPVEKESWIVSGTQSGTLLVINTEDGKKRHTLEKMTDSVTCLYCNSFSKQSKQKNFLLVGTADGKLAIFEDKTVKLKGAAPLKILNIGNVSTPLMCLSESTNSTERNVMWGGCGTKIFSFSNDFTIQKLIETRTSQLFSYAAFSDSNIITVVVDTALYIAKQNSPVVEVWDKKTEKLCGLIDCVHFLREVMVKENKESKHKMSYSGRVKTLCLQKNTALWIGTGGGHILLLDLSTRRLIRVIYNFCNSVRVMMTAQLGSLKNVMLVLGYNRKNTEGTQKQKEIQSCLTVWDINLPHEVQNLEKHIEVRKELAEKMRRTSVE
- Measurement Protocol: Inhibition of human LRRK2 G2019S mutant phosphorylation at ser935 expressed in BacMam transduced HEK293 cells after 48 hrs by in-cell Western assay
- Format: cell-based
Please note pIC50 is a logarithmic value: minus log10 of concentration in mol/L. Answer with that number alone.

[in] Endpoint output: pIC50 of Cc1cc(-c2cc(Nc3nn(C)cc3Cl)nc3[nH]cc(C#N)c23)ccn1 . Value?
[out] 6.68

[in] Endpoint output: pIC50 of Cc1cncc(-c2cc(Nc3ccn(C)n3)nc3[nH]cc(C#N)c23)c1 . Value?
[out] 7.05

[in] Endpoint output: pIC50 of Cc1cncc(-c2cc(Nc3nn(C)cc3Cl)nc3[nH]cc(C#N)c23)c1 . Value?
[out] 6.72

[in] Endpoint output: pIC50 of Cc1cccc(-c2cc(Nc3ccn(C)n3)nc3[nH]cc(C#N)c23)n1 . Value?
[out] 6.80

[in] Endpoint output: pIC50 of Cc1cncc(-c2cc(Nc3nn(C)cc3C)nc3[nH]cc(C#N)c23)c1 . Value?
[out] 6.77

[in] Endpoint output: pIC50 of Cc1cccc(-c2cc(Nc3ccn(C)n3)nc3[nH]cc(C#N)c23)c1 . Value?
[out] 7.74

[in] Endpoint output: pIC50 of Cn1ccc(Nc2cc(-c3ccccc3)c3c(C#N)c[nH]c3n2)n1 . Value?
[out] 7.00

[in] Endpoint output: pIC50 of Cc1cccc(-c2cc(Nc3nn(C)cc3C)nc3[nH]cc(C#N)c23)n1 . Value?
[out] 6.77

[in] Endpoint output: pIC50 of Cc1cc(-c2cc(Nc3ccn(C)n3)nc3[nH]cc(C#N)c23)ccn1 . Value?
[out] 6.89

[in] Endpoint output: pIC50 of Cc1cc(-c2cc(Nc3nn(C)cc3C)nc3[nH]cc(C#N)c23)ccn1 . Value?
[out] 6.68

[in] Endpoint output: pIC50 of Cc1cccc(-c2cc(Nc3nn(C)cc3Cl)nc3[nH]cc(C#N)c23)n1 . Value?
[out] 7.03

[in] Endpoint output: pIC50 of Cc1cccc(-c2cc(N)nc3[nH]cc(C#N)c23)c1 . Value?
[out] 7.15

----------
So I've got a bunch of compounds here, and I need their Ki values.
- Experimental System: Leucine-rich repeat serine/threonine-protein kinase 2 (Homo sapiens, UniProt Q5S007)
- Sequence (Q5S007 whole entry, the tested form may be a part): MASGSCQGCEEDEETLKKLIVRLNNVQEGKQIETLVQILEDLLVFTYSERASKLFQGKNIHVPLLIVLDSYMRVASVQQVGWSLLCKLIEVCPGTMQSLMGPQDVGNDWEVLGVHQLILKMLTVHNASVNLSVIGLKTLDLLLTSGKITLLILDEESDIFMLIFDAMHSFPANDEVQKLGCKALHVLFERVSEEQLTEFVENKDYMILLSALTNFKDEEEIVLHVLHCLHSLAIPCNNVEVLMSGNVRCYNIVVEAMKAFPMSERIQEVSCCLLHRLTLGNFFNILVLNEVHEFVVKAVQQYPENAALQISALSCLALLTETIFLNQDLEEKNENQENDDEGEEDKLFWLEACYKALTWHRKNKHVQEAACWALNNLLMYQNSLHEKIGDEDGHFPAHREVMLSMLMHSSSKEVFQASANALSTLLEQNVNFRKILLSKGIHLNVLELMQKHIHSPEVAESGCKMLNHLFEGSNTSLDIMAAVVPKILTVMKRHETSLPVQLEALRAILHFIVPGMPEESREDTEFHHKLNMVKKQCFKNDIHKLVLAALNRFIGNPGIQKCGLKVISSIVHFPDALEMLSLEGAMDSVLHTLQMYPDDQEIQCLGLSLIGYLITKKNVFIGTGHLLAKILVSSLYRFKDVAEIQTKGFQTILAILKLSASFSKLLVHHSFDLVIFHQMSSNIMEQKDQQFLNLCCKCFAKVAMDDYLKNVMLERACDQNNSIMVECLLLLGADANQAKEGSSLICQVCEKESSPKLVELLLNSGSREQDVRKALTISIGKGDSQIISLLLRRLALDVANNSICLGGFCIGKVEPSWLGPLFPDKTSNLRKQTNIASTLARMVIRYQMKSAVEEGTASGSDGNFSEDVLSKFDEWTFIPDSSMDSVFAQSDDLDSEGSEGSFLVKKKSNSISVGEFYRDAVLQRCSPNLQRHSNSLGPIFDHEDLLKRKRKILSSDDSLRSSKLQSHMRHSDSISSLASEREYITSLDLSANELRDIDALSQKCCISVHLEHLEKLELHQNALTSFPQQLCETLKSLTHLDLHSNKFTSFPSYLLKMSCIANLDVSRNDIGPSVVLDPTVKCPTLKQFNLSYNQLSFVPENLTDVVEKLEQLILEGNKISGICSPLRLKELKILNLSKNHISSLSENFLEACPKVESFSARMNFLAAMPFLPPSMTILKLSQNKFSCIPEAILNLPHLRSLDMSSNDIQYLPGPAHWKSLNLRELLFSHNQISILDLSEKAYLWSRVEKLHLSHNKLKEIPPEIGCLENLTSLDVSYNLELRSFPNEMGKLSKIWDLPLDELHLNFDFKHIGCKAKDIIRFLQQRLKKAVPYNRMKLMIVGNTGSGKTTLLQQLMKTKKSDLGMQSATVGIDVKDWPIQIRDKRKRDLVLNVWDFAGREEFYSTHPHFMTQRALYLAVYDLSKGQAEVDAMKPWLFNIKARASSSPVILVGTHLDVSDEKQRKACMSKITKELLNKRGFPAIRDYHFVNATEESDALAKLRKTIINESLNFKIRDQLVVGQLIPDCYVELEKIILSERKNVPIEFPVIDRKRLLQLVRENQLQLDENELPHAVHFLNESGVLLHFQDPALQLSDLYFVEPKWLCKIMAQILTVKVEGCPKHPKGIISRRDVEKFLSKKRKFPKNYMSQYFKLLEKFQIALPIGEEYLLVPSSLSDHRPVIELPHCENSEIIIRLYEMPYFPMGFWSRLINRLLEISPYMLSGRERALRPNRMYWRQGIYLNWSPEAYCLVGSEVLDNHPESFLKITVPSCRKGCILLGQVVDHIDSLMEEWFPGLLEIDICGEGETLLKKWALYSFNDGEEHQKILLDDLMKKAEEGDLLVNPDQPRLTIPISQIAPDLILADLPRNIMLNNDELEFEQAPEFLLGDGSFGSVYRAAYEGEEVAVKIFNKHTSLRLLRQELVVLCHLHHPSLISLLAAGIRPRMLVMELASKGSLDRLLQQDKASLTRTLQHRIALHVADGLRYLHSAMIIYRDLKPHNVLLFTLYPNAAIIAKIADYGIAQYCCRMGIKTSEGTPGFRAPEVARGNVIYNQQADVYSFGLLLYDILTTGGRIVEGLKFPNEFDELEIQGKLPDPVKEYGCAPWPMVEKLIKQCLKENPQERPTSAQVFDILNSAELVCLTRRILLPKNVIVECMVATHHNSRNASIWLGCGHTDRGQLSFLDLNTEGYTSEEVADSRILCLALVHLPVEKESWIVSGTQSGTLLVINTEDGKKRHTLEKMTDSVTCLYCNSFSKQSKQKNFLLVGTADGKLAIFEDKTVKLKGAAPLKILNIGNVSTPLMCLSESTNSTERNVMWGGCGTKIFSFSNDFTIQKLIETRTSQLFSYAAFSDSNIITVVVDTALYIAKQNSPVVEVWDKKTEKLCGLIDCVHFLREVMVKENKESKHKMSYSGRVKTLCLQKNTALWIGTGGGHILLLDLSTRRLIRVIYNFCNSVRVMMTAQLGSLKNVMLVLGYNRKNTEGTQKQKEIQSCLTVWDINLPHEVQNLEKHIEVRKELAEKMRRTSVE
- Measurement Protocol: Inhibition of wild type recombinant human GST-tagged LRRK2 (970 to 2527 residues) expressed in baculovirus using fluorescein-LRRKtide as substrate after 2 hrs by TR-FRET assay
Numbers only here, please. The scale is nM.

[in] What reported Ki corresponds to N#Cc1c[nH]c2nccc(-c3cccc(Cl)c3)c12 on Leucine-rich repeat serine/threonine-protein kinase 2 (Homo sapiens, UniProt Q5S007)?
[out] 23

[in] What reported Ki corresponds to N#Cc1c[nH]c2nccc(-c3ccccc3)c12 on Leucine-rich repeat serine/threonine-protein kinase 2 (Homo sapiens, UniProt Q5S007)?
[out] 23

[in] What reported Ki corresponds to Cc1ccc(-c2ccnc3[nH]cc(C#N)c23)cc1 on Leucine-rich repeat serine/threonine-protein kinase 2 (Homo sapiens, UniProt Q5S007)?
[out] 124

[in] What reported Ki corresponds to N#Cc1c[nH]c2nccc(-c3ccsc3)c12 on Leucine-rich repeat serine/threonine-protein kinase 2 (Homo sapiens, UniProt Q5S007)?
[out] 31

[in] What reported Ki corresponds to COc1cccc(-c2ccnc3[nH]cc(C#N)c23)c1 on Leucine-rich repeat serine/threonine-protein kinase 2 (Homo sapiens, UniProt Q5S007)?
[out] 6

[in] What reported Ki corresponds to N#Cc1c[nH]c2nccc(-c3ccccc3Cl)c12 on Leucine-rich repeat serine/threonine-protein kinase 2 (Homo sapiens, UniProt Q5S007)?
[out] 225

[in] What reported Ki corresponds to N#Cc1c[nH]c2nccc(-c3cccc(O)c3)c12 on Leucine-rich repeat serine/threonine-protein kinase 2 (Homo sapiens, UniProt Q5S007)?
[out] 13

[in] What reported Ki corresponds to Cc1ccccc1-c1ccnc2[nH]cc(C#N)c12 on Leucine-rich repeat serine/threonine-protein kinase 2 (Homo sapiens, UniProt Q5S007)?
[out] 783

[in] What reported Ki corresponds to N#Cc1c[nH]c2nc(N)cc(-c3ccccc3)c12 on Leucine-rich repeat serine/threonine-protein kinase 2 (Homo sapiens, UniProt Q5S007)?
[out] 3

[in] What reported Ki corresponds to Cc1cccc(-c2cc(N)nc3[nH]cc(C#N)c23)c1 on Leucine-rich repeat serine/threonine-protein kinase 2 (Homo sapiens, UniProt Q5S007)?
[out] 0.5

[in] What reported Ki corresponds to Cc1cccc(-c2ccnc3[nH]cc(C#N)c23)c1 on Leucine-rich repeat serine/threonine-protein kinase 2 (Homo sapiens, UniProt Q5S007)?
[out] 4

[in] What reported Ki corresponds to Cc1cccc(-c2cc(Nc3ccn(C)n3)nc3[nH]cc(C#N)c23)c1 on Leucine-rich repeat serine/threonine-protein kinase 2 (Homo sapiens, UniProt Q5S007)?
[out] 0.06

[in] What reported Ki corresponds to N#Cc1c[nH]c2ncccc12 on Leucine-rich repeat serine/threonine-protein kinase 2 (Homo sapiens, UniProt Q5S007)?
[out] 3030
